Source: ChEMBL document CHEMBL4145495

Here the recorded inhibition at 72 h, 10 µM is given for each entry.
# methodDescription: Cytotoxicity against human HT-29 cells assessed as cell growth inhibition at 10 uM after 72 hrs by MTS assay
# Assay type: cell-based
# experimentalSetup: read-out: GI
# unit: % | format: bare number

Here's what some known entries look like.
Query CC(=O)N1CCN(c2ncnc3oc(-c4ccccc4Cl)nc23)CC1 yields inhibition at 72 h, 10 µM of 0

Given item CN1CCN(c2ncnc3oc(-c4ccccc4Cl)nc23)CC1 , the value recorded as its inhibition at 72 h, 10 µM is 8

Next:
Value of measured inhibition at 72 h, 10 µM for the entry CC(=O)N1CCN(c2ncnc3oc(-c4ccccc4C(F)(F)F)nc23)CC1 : 12
